So I've got a bunch of binders here, and I need their Kd values.
assay.system: T1, monkey C5-mmh (monkey, UniProt P01031 19-1676 (human entry), limits assumed)
T1 construct: Recombinant monkey C5 with a C-terminal myc-myc-hexahistidine tag
T1 chain: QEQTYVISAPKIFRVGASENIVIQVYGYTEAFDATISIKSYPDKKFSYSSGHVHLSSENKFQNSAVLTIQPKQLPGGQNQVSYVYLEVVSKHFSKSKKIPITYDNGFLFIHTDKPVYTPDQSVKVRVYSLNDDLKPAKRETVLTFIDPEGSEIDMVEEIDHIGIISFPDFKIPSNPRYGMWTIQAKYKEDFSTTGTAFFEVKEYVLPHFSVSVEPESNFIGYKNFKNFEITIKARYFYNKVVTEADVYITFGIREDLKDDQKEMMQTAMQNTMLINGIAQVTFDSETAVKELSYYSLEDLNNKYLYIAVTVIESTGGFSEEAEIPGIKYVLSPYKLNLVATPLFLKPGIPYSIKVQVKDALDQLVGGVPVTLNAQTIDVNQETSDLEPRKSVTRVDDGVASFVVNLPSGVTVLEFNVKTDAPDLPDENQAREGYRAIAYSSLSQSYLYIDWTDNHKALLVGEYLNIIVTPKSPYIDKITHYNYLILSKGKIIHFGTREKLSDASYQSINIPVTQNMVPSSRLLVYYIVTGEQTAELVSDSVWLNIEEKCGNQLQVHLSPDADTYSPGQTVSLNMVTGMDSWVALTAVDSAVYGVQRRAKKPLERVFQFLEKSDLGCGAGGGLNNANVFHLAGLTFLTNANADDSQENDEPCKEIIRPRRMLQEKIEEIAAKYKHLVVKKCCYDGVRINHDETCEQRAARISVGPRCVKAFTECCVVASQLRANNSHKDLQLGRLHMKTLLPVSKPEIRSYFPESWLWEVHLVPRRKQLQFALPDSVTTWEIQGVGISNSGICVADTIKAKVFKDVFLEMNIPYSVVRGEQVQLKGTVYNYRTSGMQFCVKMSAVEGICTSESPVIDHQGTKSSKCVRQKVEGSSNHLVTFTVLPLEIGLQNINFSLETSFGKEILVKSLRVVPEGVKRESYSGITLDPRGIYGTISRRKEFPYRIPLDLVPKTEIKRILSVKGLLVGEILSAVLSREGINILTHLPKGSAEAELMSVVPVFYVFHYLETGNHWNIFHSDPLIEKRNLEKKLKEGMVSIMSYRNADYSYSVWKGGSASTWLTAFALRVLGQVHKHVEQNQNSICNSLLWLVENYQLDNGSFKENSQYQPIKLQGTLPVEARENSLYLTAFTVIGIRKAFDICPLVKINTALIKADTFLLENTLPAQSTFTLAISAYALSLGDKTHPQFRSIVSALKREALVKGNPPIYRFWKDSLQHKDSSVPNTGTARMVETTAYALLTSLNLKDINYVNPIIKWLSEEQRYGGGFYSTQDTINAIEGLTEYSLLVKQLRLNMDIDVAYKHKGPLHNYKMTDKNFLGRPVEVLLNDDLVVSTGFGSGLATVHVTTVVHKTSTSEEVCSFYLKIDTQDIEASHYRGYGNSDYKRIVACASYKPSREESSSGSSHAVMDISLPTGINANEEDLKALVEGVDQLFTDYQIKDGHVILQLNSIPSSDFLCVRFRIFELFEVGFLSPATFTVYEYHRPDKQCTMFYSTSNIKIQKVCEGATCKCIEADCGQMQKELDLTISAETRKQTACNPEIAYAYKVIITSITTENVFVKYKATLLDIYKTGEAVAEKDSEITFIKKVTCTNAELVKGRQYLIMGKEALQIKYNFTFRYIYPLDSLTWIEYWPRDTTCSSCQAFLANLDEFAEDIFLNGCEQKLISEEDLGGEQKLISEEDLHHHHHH
run.description: SPR, mAb captured via anti-hFc, 37C
Give bare numbers, in nM.

Recorded results for 3 binders are shown here.
H4H12166P2 (antibody, human IgG4, V domains shown, Histidine-mutated CDR variant of H4H12166P; human IgG4 Fc with S108P) VH: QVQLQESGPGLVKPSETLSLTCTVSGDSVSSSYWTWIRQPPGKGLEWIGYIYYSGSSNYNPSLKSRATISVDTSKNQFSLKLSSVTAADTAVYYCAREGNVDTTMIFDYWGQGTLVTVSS VL: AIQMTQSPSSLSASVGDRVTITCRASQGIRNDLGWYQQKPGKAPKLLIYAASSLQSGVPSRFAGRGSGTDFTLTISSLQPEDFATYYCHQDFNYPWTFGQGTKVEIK	7.56
H4H12166P7 (antibody, human IgG4, V domains shown, Histidine-mutated CDR variant of H4H12166P; human IgG4 Fc with S108P) VH: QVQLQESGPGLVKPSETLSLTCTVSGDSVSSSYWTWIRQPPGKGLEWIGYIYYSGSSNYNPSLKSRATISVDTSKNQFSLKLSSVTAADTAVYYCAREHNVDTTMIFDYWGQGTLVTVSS VL: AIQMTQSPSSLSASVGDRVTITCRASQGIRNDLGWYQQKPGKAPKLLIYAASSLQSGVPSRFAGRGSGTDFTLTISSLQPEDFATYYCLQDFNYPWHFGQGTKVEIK	19.3
H4H12175P (antibody, human IgG4, V domains shown, Human IgG4 Fc with S108P hinge mutation (H4H)) VH: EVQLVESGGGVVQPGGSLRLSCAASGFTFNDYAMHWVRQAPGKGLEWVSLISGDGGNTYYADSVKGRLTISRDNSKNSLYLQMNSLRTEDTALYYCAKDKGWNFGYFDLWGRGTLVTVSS VL: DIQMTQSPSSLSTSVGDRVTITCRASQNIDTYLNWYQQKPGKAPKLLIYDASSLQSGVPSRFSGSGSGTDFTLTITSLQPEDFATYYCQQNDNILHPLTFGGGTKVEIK	15.6

Please look at the items below and tell me Kd for each one, in order.
1. H4H12167P (antibody, human IgG4, V domains shown, Human IgG4 Fc with S108P hinge mutation (H4H)) VH: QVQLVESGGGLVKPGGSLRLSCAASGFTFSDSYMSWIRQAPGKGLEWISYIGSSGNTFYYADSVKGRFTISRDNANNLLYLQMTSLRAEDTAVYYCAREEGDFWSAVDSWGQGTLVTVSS VL: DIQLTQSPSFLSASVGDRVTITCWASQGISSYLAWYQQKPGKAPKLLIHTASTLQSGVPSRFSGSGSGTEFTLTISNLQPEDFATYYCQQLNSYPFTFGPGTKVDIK
2. H4H12166P10 (antibody, human IgG4, V domains shown, Histidine-mutated CDR variant of H4H12166P; human IgG4 Fc with S108P) VH: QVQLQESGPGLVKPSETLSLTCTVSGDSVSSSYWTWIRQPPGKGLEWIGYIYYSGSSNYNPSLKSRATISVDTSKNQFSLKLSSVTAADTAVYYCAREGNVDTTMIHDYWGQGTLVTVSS VL: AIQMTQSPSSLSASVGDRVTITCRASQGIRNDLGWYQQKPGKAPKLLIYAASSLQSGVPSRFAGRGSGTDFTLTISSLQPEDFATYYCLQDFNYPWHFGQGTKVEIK

0.539
42.2

The values you see were collected from patent US20170355757A1.
